- assay comment: Size distribution, polydispersity and Z-potential of LNPs by dynamic light scattering (Malvern Zetasizer)
- Assay type: physicochemical
- test context: LNPs, standard formulation 50:10:38.5:1.5; DLS
readout label: P.D.I.
Enter a number only.

molecule="CCCCCCCCCCC(CCCCCCCC)C(=O)NC(CCSCCC(=O)OCCCCCC)C(=O)NCC1CCN(C)CC1 (stereo not shown) [VC-LC-0518]" readout_label=P.D.I. meas_value=0.17

Q: Look up P.D.I. of CCCCCCCCCCC(CCCCCCCC)C(=O)NC(CCSCCC(=O)OCCCCCCCC)C(=O)NCC1CCN(C)CC1 (stereo not shown) [VC-LC-0519] and report it.
Ans: 0.16

Q: Look up P.D.I. of CCCCCCCC/C=C\CCCCCCCCOC(=O)CCSCCC(NC(=O)C(CCCCCC)CCCCCCCC)C(=O)NCCN(CC)CC (stereo not shown) [VC-LC-0489] and report it.
Ans: 0.13

Q: Look up P.D.I. of CCCCCCCC/C=C\CCCCCCCCOC(=O)CCSCCC(NC(=O)CCCCCCC/C=C\CCCCCCCC)C(=O)NCCCN1CCOCC1 (stereo not shown) [VC-LC-0355] and report it.
Ans: 0.3
